Target: human GPR10 (Homo sapiens (Human), UniProt P49683)
Sequence (P49683 whole entry): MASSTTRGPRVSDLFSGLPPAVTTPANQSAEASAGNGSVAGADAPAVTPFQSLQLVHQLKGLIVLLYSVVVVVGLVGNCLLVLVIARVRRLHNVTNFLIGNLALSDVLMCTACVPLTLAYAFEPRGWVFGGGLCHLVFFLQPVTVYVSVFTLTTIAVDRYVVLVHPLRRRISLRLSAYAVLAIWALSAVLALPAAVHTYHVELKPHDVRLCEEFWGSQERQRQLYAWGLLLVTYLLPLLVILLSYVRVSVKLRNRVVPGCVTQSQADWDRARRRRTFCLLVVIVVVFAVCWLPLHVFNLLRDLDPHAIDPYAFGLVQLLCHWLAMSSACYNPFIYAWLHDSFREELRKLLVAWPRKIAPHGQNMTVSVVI
Test: Antagonistic activity on PrRP-induced intracellular calcium mobilization in human GPR10-expressing HEK293 cells
Settings: PrRP 1 nM-induced intracellular calcium mobilization, Fluo-8
Protocol: Pharmacological Test 2 Antagonistic Activity on GPR10 Using Human GPR10-Expressing HEK293 Cells. Antagonistic activity of test compounds on PrRP-induced intracellular calcium mobilization was evaluated using GPR10-expressing HEK293 cells. HEK293 cells expressing human GPR10 were maintained in Dulbecco's Modified Eagles' medium supplemented with 10% fetal bovine serum, 1% penicillin-streptomycin and 20 mM HEPES at 37° C. in a 5% CO2 incubator. […]
Where a name gives a salt, the structure may show the parent alone.
Measured IC50 of individual entries
Answer format: numeric, nM implied, no suffix.

Compound	IC50 [nM]
C[C@H](Nc1nc2c(c(=O)n1N(C)C)CN(C(=O)c1ccc(C#N)cc1F)CC2)c1ccc(C(F)(F)F)cc1 [Example 5, hydrochloride]	46
C#CCn1c(N[C@@H](C)c2ccc(C(F)(F)F)cc2)nc2c(c1=O)CN(C(=O)c1ccc(Cl)cc1)CC2 [Example 2, hydrochloride]	378
C[C@@H](Nc1nc2c(c(=O)n1N1CCCC1)CN(C(=O)c1ccc(C#N)cc1)CC2)c1ccc(C(F)(F)F)cc1 [Example 163]	648
COn1c(N[C@@H](C)c2ccc(C(F)(F)F)cc2)nc2c(c1=O)CN(C(=O)c1ccc(OC(F)(F)F)cc1)CC2 [Example 63]	686
C[C@H](Nc1nc2c(c(=O)n1N(C)C)CN(C(=O)COc1ccc(Cl)cc1)CC2)c1ccc(Cl)cc1 [Example 2431]	3600
C#CCCn1c(N[C@@H](C)c2ccc(C(F)(F)F)cc2)nc2c(c1=O)CN(C(=O)c1ccc(C#N)cc1)CC2 [Example 2433]	62

Entry CCOn1c(N[C@H](C)c2ccc(C(F)(F)F)cc2)nc2c(c1=O)CN(C(=O)c1ccc(Cl)cc1)CC2 [Example 86] — recorded IC50 = 3710

* * *

molecular target: human GPR10 (Homo sapiens (Human), UniProt P49683); test: Antagonistic activity on PrRP-induced intracellular calcium mobilization in human GPR10-expressing HEK293 cells; settings: PrRP 1 nM-induced intracellular calcium mobilization, Fluo-8
Measured IC50 of individual entries
Remember to put the unit after the number in your answer.

The examples below pair each entry with its known result.
Sample Smiles	Assayed System	IC50
COn1c(N[C@@H](C)c2ccc(C(F)(F)F)cc2)nc2c(c1=O)CN(C(=O)c1ccc(C)c(C)c1)CC2	human GPR10 (Homo sapiens (Human), UniProt P49683)	1030 nM
COn1c(N[C@@H](C)c2ccc(C(F)(F)F)cc2)nc2c(c1=O)CN(C(=O)COc1ccc(Cl)cc1)CC2	human GPR10 (Homo sapiens (Human), UniProt P49683)	678 nM

Entry `COn1c(N[C@@H](C)c2ccc(Cl)cc2)nc2c(c1=O)CN(C(=O)COc1ccc(Cl)cc1)CC2` — recorded IC50 = 1180 nM
